Readings of inhibition for the listed molecules
Molecular target: Endonuclease 8-like 2 (Homo sapiens) (UniProt Q969S2)
Sequence (whole entry): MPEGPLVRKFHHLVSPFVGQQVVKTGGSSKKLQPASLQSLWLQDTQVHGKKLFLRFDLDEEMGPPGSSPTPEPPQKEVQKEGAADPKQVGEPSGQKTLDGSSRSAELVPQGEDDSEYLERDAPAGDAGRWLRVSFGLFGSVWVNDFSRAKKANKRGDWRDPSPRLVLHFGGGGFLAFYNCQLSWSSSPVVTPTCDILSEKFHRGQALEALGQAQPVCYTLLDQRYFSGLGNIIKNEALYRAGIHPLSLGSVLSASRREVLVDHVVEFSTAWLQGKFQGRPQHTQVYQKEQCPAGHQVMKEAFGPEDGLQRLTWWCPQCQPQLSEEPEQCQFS
Details: Compound Concentration 10.0 uM, Hit No
Description: Inhibition of NEIL2 by quantifying inhibition of NEIL2-mediated cleavage and dissociation of quenched duplex DNA oligonucleotides, measured as fluorescence at 594 nm.
# value in %; strip the unit string

CC(C)C[C@H](NC(=O)c1cc2ccccc2s1)C(=O)N1CCN(C(=O)[C@H](CO)NS(=O)(=O)c2ccc(Cl)cc2Cl)CC1 = -3.66

Measured inhibition (Endonuclease 8-like 2 (Homo sapiens) (UniProt Q969S2)), entry O=C(NC[C@@H]1[C@H]2CN(C(=O)OCc3cc(C(F)(F)F)cc(C(F)(F)F)c3)C[C@@H]12)c1ccc2[nH]nnc2c1 : -6.36

Measured inhibition (Endonuclease 8-like 2 (Homo sapiens) (UniProt Q969S2)), entry CCC[C@H](Oc1cc(C)c(-n2cc(C(F)(F)F)cn2)c(C)c1)c1ccc(C(=O)NCCC(=O)O)cc1 : 6.5

Measured inhibition (Endonuclease 8-like 2 (Homo sapiens) (UniProt Q969S2)), entry CC(C)CNc1nc(N2CCN(CC3CCCOC3)CC2)ncc1C(=O)NCc1ccccc1 (centres undefined) : -0.0955

---

target: Endonuclease 8-like 2 (Homo sapiens) (UniProt Q969S2); details: Compound Concentration 10.0 uM, Hit No
Readings of inhibition for the listed compounds
# value in %; strip the unit string

O=C(NS(=O)(=O)N1CCC1)c1cc(C2CC2)c(OCC23CC4CC(CC(C4)C2)C3)cc1F = 17.5
CN1CCN(c2ccc(/C=C(\C#N)c3ccccc3Br)cc2)CC1 = -0.489

The compound OC(CN1CCC(Cc2ccc(F)cc2)CC1)c1ccc(Cl)cc1 (stereo not drawn) showed inhibition equal to -7.99

The compound CCc1nn(CCCN2CCN(c3cccc(Cl)c3)CC2)c(=O)n1CCOc1ccccc1 showed inhibition equal to -4.48

---

target: N-glycosylase/DNA lyase (Homo sapiens); settings: Compound Concentration 10.0 uM, Hit No;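 further: OGG1 cleavage of a quenched duplex DNA oligonucleotide, coupled to APE1 for strand incision, read as fluorescence at 594 nm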
Description: Inhibition of OGG1 by quantifying inhibition of OGG1-mediated cleavage and dissociation of quenched duplex DNA oligonucleotides, measured as fluorescence at 594 nm. To generate a functional strand incision and increase turn-over this assay is coupled to APE1.
Readings of inhibition for the listed compounds
# value in %; strip the unit string

Worked cases, answers included:
CCC(F)(F)c1cc(N2CCC(S(C)(=O)=O)CC2)nc2sc(C(N)=O)c(N)c12 = -8.21
Cc1ccccc1Oc1cc(-n2c(=O)cc(C(F)(F)F)[nH]c2=O)c2ccccc2c1Cl = 50.6
CNC(=O)c1ccc(Nc2ncc(C(F)(F)F)c(NCc3nccnc3N(C)S(C)(=O)=O)n2)cc1 = 4.66
CC(C)(O)CNc1ncc(-c2ccnc(Nc3ccnc(Cl)c3)n2)c(CC2CC2)n1 = -4.97
Cc1nc(-c2ccc(C(F)(F)F)cc2)sc1C(=O)NCc1ccc(OC(C)(C)C(=O)O)cc1 = 20.2

The compound O=C(Nc1cccc(C(F)(F)F)c1)c1cc(Cl)ccc1O showed inhibition equal to -6.43

The compound CN(C)S(=O)(=O)c1ccc(NC(=S)N2CCC(C(O)(c3ccccc3)c3ccccc3)CC2)cc1 showed inhibition equal to -3.65

The compound COc1nc2ccc([C@@](O)(c3ccc(Cl)cc3)c3cncn3C)cc2c(Cl)c1Cc1ccc(-n2cccn2)cc1 showed inhibition equal to 14.3

The compound O=C(Nc1cccnn1)N1CCC(=Cc2cccc(Oc3ccc(C(F)(F)F)cn3)c2)CC1 showed inhibition equal to -7.84

---

target: Endonuclease 8-like 2 (Homo sapiens) (UniProt Q969S2); conditions: Compound Concentration 10.0 uM, Hit No;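 further: fluorescence at 594 nm reports NEIL2 cutting and release of a quenched double-stranded DNA oligo substrate, reduced signal read as inhibition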
Readings of inhibition for the listed molecules
# value in %; strip the unit string

Cc1c(C(=O)NC2CCCCC2)sc2nc3ccc(N)cc3n12 = 1.76
CCNC(=O)N1CCCN(c2ccc(C(=O)NCCc3ccc(Cl)cc3Cl)cc2NC(=O)c2cccc(Cl)c2)CC1 = 3.98
C=CC(=O)Nc1ccc2[nH]c(=O)n(C3CCN(Cc4ccc(-c5ccc6c(c5)NC(=O)CO6)cc4)CC3)c2c1 = -1.48
CC1(C)CCC(C)(C)c2cc(C(=O)Nc3ccc(C(=O)O)cc3)ccc21 = -6.36

Kindly review the next molecule as well.
The molecule Cc1ccccc1C(=O)Nc1ccc(C(=O)N2CCCC(O)c3cc(Cl)ccc32)c(C)c1 (stereo not given) showed inhibition equal to 1.01

---

target: Uracil-DNA glycosylase (Homo sapiens); conditions: Compound Concentration 10.0 uM, Hit No;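 further: UNG excision on a quenched double-stranded DNA oligo probe, with APE1 added for strand incision and turnover, read as fluorescence at 594 nm as strands separate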
Description: Inhibition of UNG by quantifying inhibition of UNG-mediated cleavage and dissociation of quenched duplex DNA oligonucleotides, measured as fluorescence at 594 nm. To generate a functional strand incision and increase turn-over this assay is coupled to APE1.
Reported endpoint: inhibition (%)
# value in %; strip the unit string

Worked cases, answers included:
O=C(O)c1cc(F)c2nc(N3[C@@H]4CC[C@H]3C[C@@H](OCc3c(-c5ccccc5OC(F)(F)F)noc3C3CC3)C4)sc2c1 = 4.52
COc1cc(OC)cc(C(=O)NNC(=O)Nc2cccc3ccccc23)c1 = -7.99

The compound N#Cc1c(Oc2cccc(OS(=O)(=O)CCCC(F)(F)F)c2)cccc1C(F)(F)F showed inhibition equal to -1.27

The compound CN1CC[C@@]23CCCC[C@@H]2[C@@H]1Cc1ccc(O)cc13 showed inhibition equal to -7.94

The compound O=C(O)Cc1cccc(OCCCN(Cc2cccc(C(F)(F)F)c2Cl)CC(c2ccccc2)c2ccccc2)c1 showed inhibition equal to 8.18

The compound CSc1ccc(C(=O)/C=C/c2cc(C)c(OC(C)(C)C(=O)O)c(C)c2)cc1 showed inhibition equal to -1.57

The compound Cc1cccc(CN2CCN(C(c3ccccc3)c3ccc(Cl)cc3)CC2)c1 (centres undefined) showed inhibition equal to 5.91

The compound CC[C@@H](C)Nc1nc(C)nc2c(-c3ccc(OC)nc3C)c(C)nn12 showed inhibition equal to -5.14

The compound O=C(O)Cn1c(C(=O)Nc2nc(-c3ccccc3Cl)cs2)cc2ccccc21 showed inhibition equal to -4.79

---

target: Endonuclease 8-like 1 (Homo sapiens) (UniProt Q96FI4); details: Compound Concentration 10.0 uM, Hit No;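 further: fluorescence at 594 nm from quenched duplex DNA oligonucleotides released by NEIL1 cleavage and strand separation, reported as reduction of this enzyme activity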
Sequence (Q96FI4 whole entry): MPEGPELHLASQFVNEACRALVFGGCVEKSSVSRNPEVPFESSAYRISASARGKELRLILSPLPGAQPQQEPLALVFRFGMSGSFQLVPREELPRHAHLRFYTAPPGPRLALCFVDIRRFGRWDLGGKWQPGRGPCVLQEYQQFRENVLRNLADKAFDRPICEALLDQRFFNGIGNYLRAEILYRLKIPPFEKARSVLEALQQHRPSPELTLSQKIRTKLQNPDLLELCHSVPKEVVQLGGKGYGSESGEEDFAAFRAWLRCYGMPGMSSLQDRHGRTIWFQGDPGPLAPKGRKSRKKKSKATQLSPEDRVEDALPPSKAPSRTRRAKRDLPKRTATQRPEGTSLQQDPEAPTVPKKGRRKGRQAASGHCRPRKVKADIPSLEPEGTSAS
Description: Inhibition of NEIL1 by quantifying inhibition of NEIL1-mediated cleavage and dissociation of quenched duplex DNA oligonucleotides, measured as fluorescence at 594 nm.
Reported endpoint: inhibition (%)
# value in %; strip the unit string

Worked cases, answers included:
CC(C)c1ccc(CC(=O)N[C@H](C)c2ccc(OCC(F)(F)F)cn2)cc1 = 3.42
CC(C)c1cc(Br)c(NC(=O)Nc2cccnc2)c(Br)c1 = 3.27
CCOC(=O)c1ccc(C#Cc2ccc3c(c2)C(C)(C)CCS3)nc1 = 1.22
COc1ccc(Br)cc1S(=O)(=O)NC(=O)/C=C/c1ccccc1Cc1ccc2ccccc2c1 = 0.537
CCc1cc(C(C)=O)c(O)cc1OCCCCCC(C)(C)c1nn[nH]n1 = -0.204
CCNC(=O)NS(=O)(=O)c1sc(CC(C)C)cc1-c1ccc(Cn2c(-c3ccccc3)nc(OC)c2C=O)cc1 = 12.3

Measured inhibition (Endonuclease 8-like 1 (Homo sapiens) (UniProt Q96FI4)), entry Cc1cc(OC2CCS(=O)(=O)CC2)cc(C)c1-c1cccc(COc2ccc(C(=O)O)c(F)c2)c1 : -1.96

Measured inhibition (Endonuclease 8-like 1 (Homo sapiens) (UniProt Q96FI4)), entry C[C@H](C[C@H](N)C(=O)O)C(=O)O : -6.51

Measured inhibition (Endonuclease 8-like 1 (Homo sapiens) (UniProt Q96FI4)), entry C[C@@H](Cn1c(=O)[nH]/c(=N\c2ccc(Oc3ccccn3)cc2)n(Cc2ccc(Cl)cc2)c1=O)C(=O)O : 5.49

Measured inhibition (Endonuclease 8-like 1 (Homo sapiens) (UniProt Q96FI4)), entry Nc1ncnc2c1ncn2[C@@H]1O[C@H](COP(=O)(O)OP(=O)(O)O)[C@@H](O)[C@H]1O : 8.75

---

molecular target: G/T mismatch-specific thymine DNA glycosylase (Homo sapiens) (UniProt Q13569); conditions: Compound Concentration 10.0 uM, Hit No;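 further: human TDG cleavage of quenched duplex DNA oligonucleotides coupled to APE1, strand release read as fluorescence at 594 nm, inhibition of TDG activity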
Sequence (Q13569 whole entry): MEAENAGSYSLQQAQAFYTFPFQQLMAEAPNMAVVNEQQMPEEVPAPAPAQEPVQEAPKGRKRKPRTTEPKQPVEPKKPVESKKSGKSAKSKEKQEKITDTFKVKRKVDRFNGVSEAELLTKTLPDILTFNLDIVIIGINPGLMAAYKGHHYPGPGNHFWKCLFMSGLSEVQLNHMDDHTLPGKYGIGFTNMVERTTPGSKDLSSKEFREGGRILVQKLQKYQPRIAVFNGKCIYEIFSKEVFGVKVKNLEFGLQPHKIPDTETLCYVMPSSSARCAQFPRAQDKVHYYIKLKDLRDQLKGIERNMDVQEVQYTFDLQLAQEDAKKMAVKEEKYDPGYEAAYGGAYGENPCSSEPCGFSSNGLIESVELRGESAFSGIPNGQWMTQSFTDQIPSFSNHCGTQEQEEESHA
Description: Inhibition of TDG by quantifying inhibition of TDG-mediated cleavage and dissociation of quenched duplex DNA oligonucleotides, measured as fluorescence at 594 nm. To generate a functional strand incision and increase turn-over this assay is coupled to APE1.
Reported endpoint: inhibition (%)
# value in %; strip the unit string

O=S(=O)(c1ccccc1)N(CC(F)(F)F)c1ccc(C(O)(C(F)(F)F)C(F)(F)F)cc1 = 50.9
C[N+]1(C)[C@@H]2C[C@@H](OC(=O)C(O)(c3cccs3)c3cccs3)C[C@H]1[C@@H]1O[C@@H]12 = -0.0311
OCCn1cc(-c2cnc3nnn(Cc4ccc5ncccc5c4)c3n2)cn1 = 49.5
COc1ccc(C2(O)OC(=O)C(c3ccc4c(c3)OCO4)=C2Cc2cc(OC)c(OC)c(OC)c2)cc1 (centres undefined) = 8.23

The molecule COc1cc(C)c(Sc2cnc(NC(=O)c3ccc(CNC(C)C(C)(C)C)cc3)s2)cc1C(=O)N1CCN(C(C)=O)CC1 (centres undefined) showed inhibition equal to 37.6

The molecule CC1(C)CN2C(CS/C(=N\C3CCCCC3)NC3CCCCC3)=CSC2=N1 showed inhibition equal to -0.781

The molecule CCOC(=O)c1ccc(CN(Cc2ccc(-c3cccc(S(C)(=O)=O)c3)cc2)S(=O)(=O)c2c(C)cc(C)cc2C)o1 showed inhibition equal to 35

The molecule CC[C@H](C(=O)Nc1ccccc1N1CCCC1)c1ccccc1 showed inhibition equal to 33.1

The molecule COc1ccccc1CN[C@H]1C2CCN(CC2)[C@H]1C(c1ccccc1)c1ccccc1 showed inhibition equal to 0.738

The molecule CCC1(C2=NCCN2)Cc2ccccc2O1 (centres undefined) showed inhibition equal to 2.85

The molecule CCCCc1oc2ccccc2c1C(=O)c1cc(I)c(OCCN(CC)CC)c(I)c1 showed inhibition equal to 30.6

The molecule O=C(NCc1ncc(C(F)(F)F)cc1Cl)c1ccc2c(c1)C1(CCS(=O)(=O)CC1)[C@@H](C1CC1)N2S(=O)(=O)c1ccc(F)cc1 showed inhibition equal to 36.9

The molecule NS(=O)(=O)c1cc(NC(=O)C2(c3ccccc3Cl)CC2)ccc1Oc1cccc(Cl)c1 showed inhibition equal to 35.3

The molecule CC(C=CC1=C(C)CCCC1(C)C)=CC=CC(C)=CC(=O)O showed inhibition equal to 96.3
